Values were extracted from patent US7601739B2.

experimental system: hERα (Homo sapiens, UniProt P03372)
Construct: mammalian expression plasmid containing full length human ER cDNA, pCMV-hER; expressed in transfected cells; host or cells: MCF-7 human breast cancer cells
protocol notes: Transient transfection reporter assay for hERα in MCF-7 cells
Assay type: cell-based
Parameters: dose or concentration left out as unconfirmed
stated conditions: MCF-7 cells transfected with hERα; DMSO set as 1
Description: For the transient transfection reporter assays, the cells were plated in triplicate in 12-well plates at a density of 300000 cells/well in the phenol red-free DMEM (GIBCO/BRL, Grand Island, N.Y.) supplemented with 10% charcoal-stripped fetal bovine serum (Hyclone, Logan, Utah), Penicillin (100 unit/ml)/Streptomycin ([…]), 2 mML-glutamine and 1 mM sodium Pyruvate. 24 hrs later, the cells were transfected with three plasmids by using Superfect transfection kit (Qiagen, Valencia, Calif.). […]

compound | experimental system | Relative Estrogenic Activity
CCCCNC(=O)CCCCCCCCCCOCC1Cc2ccccc2CN1C(=O)c1cccc(F)c1 (centres unmarked) [Compound 2] | hERα (Homo sapiens, UniProt P03372) | 0.9
CCCCNC(=O)CCCCCCCCCCOCC1Cc2ccccc2CN1C(=O)Cc1cccc(F)c1 (centres unmarked) [Compound 12] | hERα (Homo sapiens, UniProt P03372) | 1.68
CCCCNC(=O)CCCCCCCCCCOCC1Cc2ccccc2CN1C(=O)c1ccc(C)cc1 (centres unmarked) [Compound 9] | hERα (Homo sapiens, UniProt P03372) | 1.72
CCCCNC(=O)CCCCCCCCCCOCC1Cc2ccccc2CN1C(=O)c1ccc(O)cc1 (centres unmarked) [Compound 7] | hERα (Homo sapiens, UniProt P03372) | 2.05
CCCCNC(=O)CCCCCCCCCCOCC1Cc2ccccc2CN1C(=O)c1cccc(C)c1 (centres unmarked) [Compound 8] | hERα (Homo sapiens, UniProt P03372) | 1.32
CCCCNC(=O)CCCCCCCCCCOCC1Cc2ccccc2CN1C(=O)c1ccc(OC)cc1 (centres unmarked) [Compound 5] | hERα (Homo sapiens, UniProt P03372) | 1.06
CCCCNC(=O)CCCCCCCCCCOCC1Cc2ccccc2CN1C(=O)c1ccccc1F (centres unmarked) [Compound 1] | hERα (Homo sapiens, UniProt P03372) | 1.02
CCCCCCCCNC(=O)CCCCCCCCCCOCC1Cc2ccccc2CN1C(=O)c1cccc(F)c1 (centres unmarked) [Compound 11] | hERα (Homo sapiens, UniProt P03372) | 0.83

* * *

experimental system: hERα (Homo sapiens, UniProt P03372)
Construct: mammalian expression plasmid containing full length human ER cDNA, pCMV-hER; expressed in transfected cells; host or cells: MCF-7 human breast cancer cells
Sequence (P03372 1-595): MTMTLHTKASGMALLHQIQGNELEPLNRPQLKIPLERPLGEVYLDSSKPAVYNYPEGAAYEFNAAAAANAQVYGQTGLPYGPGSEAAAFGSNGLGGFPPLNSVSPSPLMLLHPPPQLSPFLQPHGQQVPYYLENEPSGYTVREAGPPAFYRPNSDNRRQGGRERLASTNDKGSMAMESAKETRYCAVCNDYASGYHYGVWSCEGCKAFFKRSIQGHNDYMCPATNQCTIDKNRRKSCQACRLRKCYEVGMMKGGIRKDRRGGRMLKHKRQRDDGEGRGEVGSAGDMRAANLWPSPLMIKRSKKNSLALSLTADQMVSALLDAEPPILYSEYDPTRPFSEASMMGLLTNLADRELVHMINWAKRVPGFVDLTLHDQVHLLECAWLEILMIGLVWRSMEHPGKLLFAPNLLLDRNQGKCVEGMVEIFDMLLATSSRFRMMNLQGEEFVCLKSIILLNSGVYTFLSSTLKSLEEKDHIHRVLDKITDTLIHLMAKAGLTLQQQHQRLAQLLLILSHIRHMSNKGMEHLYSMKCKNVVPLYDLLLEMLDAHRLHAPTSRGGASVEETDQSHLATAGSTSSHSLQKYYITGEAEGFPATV
protocol notes: Transient transfection reporter assay for hERα in MCF-7 cells
Format: cell-based
stated conditions: with 1 nM estradiol; 1 nM E2 used as reference (1)
Parameter: Relative Antiestrogenic Activity at 2.5 μM. Scope: all listed entries.
readout kind: Relative Antiestrogenic Activity at 2.5 μM

compound | experimental system | reading
CCCCNC(=O)CCCCCCCCCCOCC1Cc2ccccc2CN1C(=O)c1cccc(Cl)c1 (stereo not shown) [Compound 10] | hERα (Homo sapiens, UniProt P03372) | 0.83
CCCCNC(=O)CCCCCCCCCCOCC1Cc2ccccc2CN1C(=O)c1ccc(O)cc1 (stereo not shown) [Compound 7] | hERα (Homo sapiens, UniProt P03372) | 0.76
CCCCNC(=O)CCCCCCCCCCOCC1Cc2ccccc2CN1C(=O)c1cccc(F)c1 (stereo not shown) [Compound 2] | hERα (Homo sapiens, UniProt P03372) | 0.75
CCCCNC(=O)CCCCCCCCCCOCC1Cc2ccccc2CN1C(=O)c1cccc(C)c1 (stereo not shown) [Compound 8] | hERα (Homo sapiens, UniProt P03372) | 0.75
